- procedureText: Phase I DDI study with rifampicin: plasma pharmacokinetics of BI 425809
- Assay type: in vivo, human (healthy male volunteers)
- reportedConditions: male, human, plasma, oral, 25 mg, AUC0-∞, gMean, BI 425809 25 mg alone, N = 16
testReadout: AUC(0-inf) (µM·h)

- C[C@@H](Oc1ccc(S(C)(=O)=O)cc1C(=O)N1C[C@@H]2C[C@]2(c2cc(C(F)(F)F)on2)C1)C(F)(F)F: 8.6

---

- procedureText: Phase I DDI study with itraconazole: plasma pharmacokinetics of BI 425809
- Assay type: in vivo, human (healthy male volunteers)
- reportedConditions: male, human, plasma, oral, 25 mg
testReadout: AUC(0-t) (µM·h)

• C[C@@H](Oc1ccc(S(C)(=O)=O)cc1C(=O)N1C[C@@H]2C[C@]2(c2cc(C(F)(F)F)on2)C1)C(F)(F)F = 10.2
